Data provenance is PubChem BioAssay (NCATS).

protocolSummary: qHTS for differential inhibitors of proliferation of Plasmodium falciparum line GB4 (AID 1816);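 further: parasite growth measured after 72 h incubation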
condition: Plasmodium falciparum GB4 proliferation inhibition; series mostly up to 28.7 µM
Records with an inconclusive call do not appear. The source made the active and inactive calls. The call rests on the fitted dose curve; in most records, active means well fitted curve in the direction sought with a large enough effect; inconclusive means small, poorly fitted or top-dose-only effect, or another doubt; inactive means no such curve, though single readings can be large or run the other way.
Hi there, use one of these labels in your reply, thanks! active, inactive

sampleSmiles: CCCN1CCC[C@@H]2Cc3nc(N)ncc3C[C@H]21
classification: inactive
//
sampleSmiles: Cc1nc2n(c(=O)c1CCN1CCC(c3noc4cc(F)ccc34)CC1)CCCC2
classification: active
//
sampleSmiles: CC(=O)[C@H]1CC[C@H]2[C@@H]3CC[C@H]4C[C@H](O)CC[C@]4(C)[C@H]3C(=O)C[C@]12C
classification: inactive
//
sampleSmiles: O=c1c(O)c(-c2ccc(O)c(O)c2)oc2cc(O)cc(O)c12
classification: active

Consider now this further compound.
Exam item: Identify the outcome logged in this assay for the compound shown: `OCCN1CCN(CCCN2c3ccccc3Sc3ccc(C(F)(F)F)cc32)CC1`
Marked response: active

----------
System: CP265
protocolSummary: qHTS profiling for inhibitors of Plasmodium falciparum proliferation (AID 504749); further: nearly all actives have a fitted effect of over 60% in size
condition: P. falciparum in erythrocytes, SYBR Green DNA, 72 h; series mostly up to 28.7 µM
Inconclusive results are not listed. Calls of active or inactive are those of the source. Calls come from the whole dose curve; as a rule, active = well fitted inhibition curve with a large enough effect; inconclusive = small, poorly fitted or top-dose-only effect; inactive = flat fitted curve, though single readings scatter.
Hi there, use one of these labels in your reply, thanks! true (1) for active, false (0) for inactive

compound: CC1OC(C)OC(C)O1 (stereo not given)
system: CP265
classification: false (0)
//
compound: NCC(O)c1ccc(O)cc1 (stereo not given)
system: CP265
classification: false (0)
//
compound: c1ccc2c(c1)OCC(C1=NCCN1)O2 (stereo not given)
system: CP265
classification: false (0)
//
compound: c1ccc(C2CC2)c(OCC2=NCCN2)c1
system: CP265
classification: false (0)
//
compound: CCN(CC)CCOC(=O)C(O)(c1ccccc1)c1ccccc1
system: CP265
classification: false (0)
//
compound: FC(F)(F)c1cccc(C2=CCN(CCc3ccc4ccccc4c3)CC2)c1
system: CP265
classification: false (0)
//
compound: NCC1(CC(=O)O)CCCCC1
system: CP265
classification: false (0)
//
compound: COc1ccc(C(=O)c2c(C)n(CCN3CCOCC3)c3ccccc23)cc1
system: CP265
classification: false (0)
//
compound: CC(C)(C)CC(C)(C)c1ccc(O)cc1
system: CP265
classification: false (0)
//
compound: Clc1cccc(N2CCNCC2)c1
system: CP265
classification: false (0)

Exam item: Identify the outcome logged in this assay for the compound shown: CCC(C(N)=O)N1CCCC1=O (stereo not given)
Marked response: false (0)

Exam item: Identify the outcome logged in this assay for the compound shown: `C=C1CC[C@@]2(O)[C@H]3Cc4ccc(O)c5c4[C@@]2(CCN3CC2CC2)[C@H]1O5`
Marked response: false (0)

Exam item: Identify the outcome logged in this assay for the compound shown: `CC(=O)[C@H]1CC[C@H]2[C@@H]3CC[C@H]4C[C@](C)(O)CC[C@]4(C)[C@H]3CC[C@]12C`
Marked response: false (0)

Exam item: Identify the outcome logged in this assay for the compound shown: Clc1ccc(COC(Cn2ccnc2)c2ccc(Cl)cc2Cl)cc1 (stereo not given)
Marked response: true (1)

Exam item: Identify the outcome logged in this assay for the compound shown: `CN1C[C@H](CNC(=O)OCc2ccccc2)C[C@@H]2c3cccc4c3c(cn4C)C[C@H]21`
Marked response: true (1)
